- assaySystem: FXR (Homo sapiens)
- Construct: 5 μL of 20 nM FXR-LBD Complete Coregulator buffer G; purchased ThermoFisher PV4833
- Sequence (Q96RI1 262-486 limits assumed): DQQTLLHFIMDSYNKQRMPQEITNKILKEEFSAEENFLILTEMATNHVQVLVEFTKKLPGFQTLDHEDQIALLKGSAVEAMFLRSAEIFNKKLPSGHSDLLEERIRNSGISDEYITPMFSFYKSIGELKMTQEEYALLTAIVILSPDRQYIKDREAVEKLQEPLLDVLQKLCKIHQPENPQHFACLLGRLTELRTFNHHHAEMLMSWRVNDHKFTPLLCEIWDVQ
- measurementNotes: FXR antagonist screening by TR-FRET (LanthaScreen TR-FRET FXR co-activation assay kit)
- Type: biochemical
- measurementSetup: Table 1.1, FXR antagonistic activity; TR-FRET with CDCA; geometric means of at least two independent runs
- Description: FXR activity was evaluated by time-resolved fluorescence resonance energy transfer (TR-FRET) assay, using LanthaScreen™ TR-FRET FXR co-activation assay kit (ThermoFisher, Cat. PV4833). […]
outcomeMeasure: IC50

Task: What value of measured IC50 is listed for Cc1c(C(=O)O)oc2ccc(S(=O)(=O)N(CCc3ccccc3)Cc3cccc4cccnc34)cc12 [Example F27-S44] ?
Result: 10 to 50 µM

Task: What value of measured IC50 is listed for CCOC(=O)c1oc2ccc(S(=O)(=O)N(CCc3ccccc3)Cc3ccccc3N3CCN(C(=O)OC(C)(C)C)CC3)cc2c1C [Example M8-87] ?
Result: 50 to 100 µM

Task: What value of measured IC50 is listed for Cc1c(C(=O)O)oc2ccc(S(=O)(=O)N(CCc3ccccc3)c3ccc(N4CCN(C)CC4)cc3)cc12 [Example F27-S64] ?
Result: 50 to 100 µM

Task: What value of measured IC50 is listed for Cc1c(C(=O)O)oc2ccc(S(=O)(=O)N(CCc3ccccc3)c3ccc(N4CCN(C(=O)OC(C)(C)C)CC4)nc3)cc12 [Example F27-S75] ?
Result: 10 to 50 µM

Task: What value of measured IC50 is listed for CCOC(=O)c1oc2ccc(S(=O)(=O)N(CCc3ccccc3)Cc3ccccc3N3CCN(C(=O)CC(C)(C)C)CC3)cc2c1C [Example M10-103] ?
Result: 50 to 100 µM

Task: What value of measured IC50 is listed for CCOC(=O)c1oc2ccc(S(=O)(=O)N(CCc3ccccc3)c3ccc(Oc4ccccc4)cc3)cc2c1C [Example M8-12] ?
Result: 50 to 100 µM

Task: What value of measured IC50 is listed for CCOC(=O)c1oc2ccc(S(=O)(=O)N(CCc3ccccc3)Cc3ccc(C(F)(F)F)cc3C(F)(F)F)cc2c1C [Example M4-58] ?
Result: 50 to 100 µM

Task: What value of measured IC50 is listed for CCOC(=O)c1oc2ccc(S(=O)(=O)N(CCc3ccccc3)Cc3ccccc3N3CCN(Cc4ccccc4)CC3)cc2c1C [Example M10-104] ?
Result: 50 to 100 µM

Task: What value of measured IC50 is listed for CCOC(=O)c1oc2ccc(S(=O)(=O)N(CCc3ccccc3)c3ccccc3N3CCNCC3)cc2c1C [Example M9-1] ?
Result: 50 to 100 µM

Task: What value of measured IC50 is listed for Cc1c(C(=O)O)oc2ccc(S(=O)(=O)N(CCc3ccccc3)Cc3ccc(C(F)(F)F)cc3F)cc12 [Example F27-S55] ?
Result: 50 to 100 µM

Task: What value of measured IC50 is listed for CCOC(=O)c1oc2ccc(S(=O)(=O)N(CCc3ccccc3)Cc3ccc(C#N)cc3)cc2c1C [Example M4-33] ?
Result: 50 to 100 µM

Task: What value of measured IC50 is listed for CCOC(=O)c1oc2ccc(S(=O)(=O)N(CCc3ccccc3)Cc3ccccc3N3CCN(C(C)=O)CC3)cc2c1C [Example M10-100] ?
Result: 50 to 100 µM

Task: What value of measured IC50 is listed for Cc1c(C(=O)O)oc2ccc(S(=O)(=O)N(CCc3ccccc3)Cc3cccc(N4CCN(C(=O)OC(C)(C)C)CC4)c3)cc12 [Example F27-S88] ?
Result: 0.1 to 10 µM

Task: What value of measured IC50 is listed for Cc1c(C(=O)O)oc2ccc(S(=O)(=O)N(CCc3ccccc3)Cc3ccc(C(C)C)cc3)cc12 [Example F27-S36] ?
Result: 10 to 50 µM

Task: What value of measured IC50 is listed for Cc1c(C(=O)O)oc2ccc(S(=O)(=O)N(CCc3ccccc3)Cc3cccc(F)c3)cc12 [Example F27-S20] ?
Result: 10 to 50 µM

Task: What value of measured IC50 is listed for Cc1c(C(=O)O)oc2ccc(S(=O)(=O)N(CCc3ccccc3)Cc3ccccc3N3CCN(Cc4ccccc4)CC3)cc12 [Example F27-S104] ?
Result: 50 to 100 µM

Task: What value of measured IC50 is listed for CCOC(=O)c1oc2ccc(S(=O)(=O)N(CCc3ccccc3)Cc3ccccc3N3CCNCC3)cc2c1C [Example M9-2] ?
Result: 50 to 100 µM

Task: What value of measured IC50 is listed for Cc1c(C(=O)O)oc2ccc(S(=O)(=O)N(CCc3ccccc3)c3ccc(N4CCN(C(=O)c5ccccc5)CC4)cc3)cc12 [Example F27-S69] ?
Result: 10 to 50 µM

Task: What value of measured IC50 is listed for CCOC(=O)c1oc2ccc(S(=O)(=O)N(CCc3ccccc3)Cc3ccc(C(C)=O)cc3)cc2c1C [Example M4-38] ?
Result: 50 to 100 µM

Task: What value of measured IC50 is listed for CCOC(=O)c1oc2ccc(S(=O)(=O)N(CCc3ccccc3)c3ccccc3N3CCN(C(=O)OC(C)(C)C)CC3)cc2c1C [Example M8-77] ?
Result: 50 to 100 µM

Task: What value of measured IC50 is listed for CCOC(=O)c1oc2ccc(S(=O)(=O)N(CCc3ccccc3)Cc3ccc(N4CCN(C)CC4)cc3)cc2c1C [Example M8-80] ?
Result: 50 to 100 µM

Task: What value of measured IC50 is listed for Cc1c(C(=O)O)oc2ccc(S(=O)(=O)N(CCc3ccccc3)c3ccc(N4CCN(C(=O)OC(C)(C)C)CC4)cc3)cc12 [Example F27-S65] ?
Result: 10 to 50 µM

Task: What value of measured IC50 is listed for CCOC(=O)c1oc2ccc(S(=O)(=O)N(CCc3ccccc3)Cc3ccc(Cl)cc3Cl)cc2c1C [Example M4-60] ?
Result: 50 to 100 µM

Task: What value of measured IC50 is listed for Cc1c(C(=O)O)oc2ccc(S(=O)(=O)N(CCc3ccccc3)c3ccccc3N3CCNCC3)cc12 [Example F27-S89] ?
Result: 50 to 100 µM

Task: What value of measured IC50 is listed for Cc1c(C(=O)O)oc2ccc(S(=O)(=O)N(CCc3ccccc3)c3ccc(N4CCOCC4)cc3)cc12 [Example F27-S63] ?
Result: 50 to 100 µM

Task: What value of measured IC50 is listed for Cc1c(C(=O)O)oc2ccc(S(=O)(=O)N(CCc3ccccc3)Cc3ccc(C(N)=O)cc3)cc12 [Example F27-S33] ?
Result: 50 to 100 µM

Task: What value of measured IC50 is listed for CCOC(=O)c1oc2ccc(S(=O)(=O)N(CCc3ccccc3)Cc3ccc(C(C)(C)C)cc3)cc2c1C [Example M4-37] ?
Result: 50 to 100 µM

Task: What value of measured IC50 is listed for Cc1c(C(=O)O)oc2ccc(S(=O)(=O)N(CCc3ccccc3)Cc3ccc4ccccc4c3)cc12 [Example F27-S45] ?
Result: 10 to 50 µM

* * *

outcomeMeasure: melting point

Task: What value of measured melting point is listed for Cc1c(C(=O)O)oc2ccc(S(=O)(=O)N(CCc3ccccc3)Cc3ccccc3C(F)(F)F)cc12 ?
Result: 138 to 139 °C

Task: What value of measured melting point is listed for Cc1c(C(=O)O)oc2ccc(S(=O)(=O)N(CCc3ccccc3)Cc3ccccc3N3CC[N+](C)(C)CC3)cc12 ?
Result: 143 to 144 °C

Task: What value of measured melting point is listed for Cc1c(C(=O)O)oc2ccc(S(=O)(=O)N(CCc3ccccc3)Cc3ccccc3N3CCN(C(=O)c4ccccc4)CC3)cc12 ?
Result: 163 to 164 °C

Task: What value of measured melting point is listed for CCCOC(=O)N1CCN(c2ccc(N(CCc3ccccc3)S(=O)(=O)c3ccc4oc(C(=O)O)c(C)c4c3)cc2)CC1 ?
Result: > 380 °C (dec.)

Task: What value of measured melting point is listed for Cc1c(C(=O)O)oc2ccc(S(=O)(=O)N(CCc3ccccc3)Cc3ccc(/C=C/C(=O)O)cc3)cc12 ?
Result: 270 to 271 °C

Task: What value of measured melting point is listed for Cc1c(C(=O)O)oc2ccc(S(=O)(=O)N(CCc3ccccc3)c3ccc(Cc4ccccc4)cc3)cc12 ?
Result: 301 to 302 °C

Task: What value of measured melting point is listed for CC(=O)N1CCN(c2ccc(N(CCc3ccccc3)S(=O)(=O)c3ccc4oc(C(=O)O)c(C)c4c3)cc2)CC1 ?
Result: 183 to 184 °C

Task: What value of measured melting point is listed for Cc1c(C(=O)O)oc2ccc(S(=O)(=O)N(CCc3ccccc3)Cc3ccc(F)cc3C(F)(F)F)cc12 ?
Result: 156 to 157 °C

Task: What value of measured melting point is listed for Cc1c(C(=O)O)oc2ccc(S(=O)(=O)N(CCc3ccccc3)c3ccc(CN4CCN(C(=O)OC(C)(C)C)CC4)cc3)cc12 ?
Result: 234 to 235 °C

Task: What value of measured melting point is listed for Cc1c(C(=O)O)oc2ccc(S(=O)(=O)N(CCc3ccccc3)Cc3c(F)cc(Cl)cc3F)cc12 ?
Result: > 380 °C (dec.)

Task: What value of measured melting point is listed for CC(=O)c1ccc(CN(CCc2ccccc2)S(=O)(=O)c2ccc3oc(C(=O)O)c(C)c3c2)cc1 ?
Result: > 380 °C (dec.)

Task: What value of measured melting point is listed for Cc1c(C(=O)O)oc2ccc(S(=O)(=O)N(CCc3ccccc3)Cc3ccccc3Cl)cc12 ?
Result: 156 to 157 °C

Task: What value of measured melting point is listed for Cc1c(C(=O)O)oc2ccc(S(=O)(=O)N(CCc3ccccc3)Cc3cccc(-c4ccccc4)c3)cc12 ?
Result: > 380 °C (dec.)

Task: What value of measured melting point is listed for Cc1c(C(=O)O)oc2ccc(S(=O)(=O)N(CCc3ccccc3)Cc3ccc(F)cc3)cc12 ?
Result: 188 to 189 °C

Task: What value of measured melting point is listed for Cc1c(C(=O)O)oc2ccc(S(=O)(=O)N(CCc3ccccc3)c3ccccc3N3CCN(C(=O)OC(C)(C)C)CC3)cc12 ?
Result: 168 to 169 °C

Task: What value of measured melting point is listed for Cc1c(C(=O)O)oc2ccc(S(=O)(=O)N(CCc3ccccc3)Cc3ccc(C(F)(F)F)cc3C(F)(F)F)cc12 ?
Result: 155 to 156 °C

Task: What value of measured melting point is listed for Cc1c(C(=O)O)oc2ccc(S(=O)(=O)N(CCc3ccccc3)Cc3ccccc3N3CCN(C(=O)CC(C)(C)C)CC3)cc12 ?
Result: 190 to 191 °C

Task: What value of measured melting point is listed for Cc1c(C(=O)O)oc2ccc(S(=O)(=O)N(CCc3ccccc3)Cc3ccc(C(C)C)cc3)cc12 ?
Result: 206 to 207 °C

Task: What value of measured melting point is listed for Cc1c(C(=O)O)oc2ccc(S(=O)(=O)N(CCc3ccccc3)c3ccc(N4CCN(Cc5ccccc5)CC4)cc3)cc12 ?
Result: > 380 °C (dec.)

Task: What value of measured melting point is listed for Cc1c(C(=O)O)oc2ccc(S(=O)(=O)N(CCc3ccccc3)Cc3c(Cl)cccc3Cl)cc12 ?
Result: 176 to 177 °C

Task: What value of measured melting point is listed for Cc1c(C(=O)O)oc2ccc(S(=O)(=O)N(CCc3ccccc3)c3ccc(C4CCN(C(=O)OC(C)(C)C)CC4)cc3)cc12 ?
Result: > 380 °C (dec.)

Task: What value of measured melting point is listed for Cc1c(C(=O)O)oc2ccc(S(=O)(=O)N(CCc3ccccc3)Cc3cccc(F)c3)cc12 ?
Result: > 380 °C (dec.)

Task: What value of measured melting point is listed for Cc1c(C(=O)O)oc2ccc(S(=O)(=O)N(CCc3ccccc3)Cc3cccc(Cl)c3)cc12 ?
Result: > 380 °C (dec.)

Task: What value of measured melting point is listed for Cc1c(C(=O)O)oc2ccc(S(=O)(=O)N(CCc3ccccc3)Cc3ccc(CC(=O)O)cc3)cc12 ?
Result: 182 to 183 °C

Task: What value of measured melting point is listed for Cc1c(C(=O)O)oc2ccc(S(=O)(=O)N(CCc3ccccc3)c3ccc(N4CCN(C(=O)c5ccccc5)CC4)cc3)cc12 ?
Result: > 380 °C (dec.)

Task: What value of measured melting point is listed for Cc1c(C(=O)O)oc2ccc(S(=O)(=O)N(CCc3ccccc3)Cc3ccccc3Br)cc12 ?
Result: 170 to 171 °C

Task: What value of measured melting point is listed for Cc1c(C(=O)O)oc2ccc(S(=O)(=O)N(CCc3ccccc3)Cc3ccccc3[N+](=O)[O-])cc12 ?
Result: 180 to 181 °C
